Reference source: paper PMC4336329

Target: human ether-à-go-go-related gene (hERG) potassium channel (human, UniProt Q12809)
Sequence (Q12809 whole entry, looked up): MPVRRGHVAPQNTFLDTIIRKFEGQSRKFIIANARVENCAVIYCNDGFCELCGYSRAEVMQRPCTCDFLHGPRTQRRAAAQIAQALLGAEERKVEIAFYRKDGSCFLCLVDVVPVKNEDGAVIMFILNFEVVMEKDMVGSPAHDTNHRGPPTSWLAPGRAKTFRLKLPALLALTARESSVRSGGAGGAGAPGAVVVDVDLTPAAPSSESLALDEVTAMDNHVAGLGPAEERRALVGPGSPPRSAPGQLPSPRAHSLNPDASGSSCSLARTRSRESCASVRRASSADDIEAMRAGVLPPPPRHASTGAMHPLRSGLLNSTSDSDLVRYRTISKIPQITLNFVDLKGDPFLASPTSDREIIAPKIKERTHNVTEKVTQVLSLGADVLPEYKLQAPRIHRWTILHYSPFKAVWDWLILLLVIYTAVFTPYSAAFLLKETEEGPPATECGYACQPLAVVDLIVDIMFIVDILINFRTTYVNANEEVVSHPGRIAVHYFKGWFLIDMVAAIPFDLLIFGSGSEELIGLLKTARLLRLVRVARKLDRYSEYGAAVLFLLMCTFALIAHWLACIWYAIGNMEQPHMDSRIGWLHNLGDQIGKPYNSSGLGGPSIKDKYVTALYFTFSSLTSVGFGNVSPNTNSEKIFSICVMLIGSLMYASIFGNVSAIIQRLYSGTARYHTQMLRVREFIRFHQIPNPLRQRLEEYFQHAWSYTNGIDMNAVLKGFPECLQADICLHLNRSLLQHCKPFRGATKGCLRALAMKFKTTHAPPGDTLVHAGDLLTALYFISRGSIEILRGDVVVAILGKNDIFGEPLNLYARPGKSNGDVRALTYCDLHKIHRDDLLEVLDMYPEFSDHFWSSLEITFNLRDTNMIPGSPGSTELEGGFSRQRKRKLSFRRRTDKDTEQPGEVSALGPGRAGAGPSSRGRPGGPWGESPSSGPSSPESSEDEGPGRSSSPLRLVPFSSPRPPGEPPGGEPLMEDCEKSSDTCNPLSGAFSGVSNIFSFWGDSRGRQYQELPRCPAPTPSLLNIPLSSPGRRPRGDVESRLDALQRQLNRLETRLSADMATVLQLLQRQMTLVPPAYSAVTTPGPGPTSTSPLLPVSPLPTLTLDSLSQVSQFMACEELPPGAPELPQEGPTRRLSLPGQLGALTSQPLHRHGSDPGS
Experiment: primary screen, population patch clamp on CHO cells stably expressing hERG; higher = less effect of the substance
The campaign covered roughly 310,000 compounds. About 14,000 (4.5%) showed an effect of 50% or more. Effects have a minus sign here. The sample as a whole holds a higher share of strong results than the screen did.
Record t whenever hERG current change (%, negative = inhibition) at 10uM is at -50% or higher; record f when lower.

compound	experimental system	group
Cc1oc(-c2ccc(Cl)cc2)nc1CN1CCC(C(=O)N2CCN(Cc3ccccc3)CC2)CC1	human ether-à-go-go-related gene (hERG) potassium channel (human, UniProt Q12809)	f
CN1CC(C(=O)c2ccccc2)C(c2ccccc2)C1 (stereo not shown)	human ether-à-go-go-related gene (hERG) potassium channel (human, UniProt Q12809)	t
Cc1ccc(C(=O)C2CN(C)CC2C(=O)c2ccc(C)cc2)cc1 (stereo not shown)	human ether-à-go-go-related gene (hERG) potassium channel (human, UniProt Q12809)	f
CN1CC(C(=O)c2ccccc2)C(C(=O)c2ccccc2)C1 (stereo not shown)	human ether-à-go-go-related gene (hERG) potassium channel (human, UniProt Q12809)	t
COc1ccc(C(=O)C2CN(C)CC2c2ccc(Cl)cc2)cc1 (stereo not shown)	human ether-à-go-go-related gene (hERG) potassium channel (human, UniProt Q12809)	f
Cc1oc(-c2ccc(-c3ccccc3)cc2)nc1CN1CCN(CC(=O)N(C)C)CC1	human ether-à-go-go-related gene (hERG) potassium channel (human, UniProt Q12809)	f
CC(=O)Nc1ccc(C2CN(C)CC2C(=O)c2ccc(Cl)cc2)cc1 (stereo not shown)	human ether-à-go-go-related gene (hERG) potassium channel (human, UniProt Q12809)	t
Cc1ccc(C(=O)C2CN3CCC2CC3)cc1.Cl (stereo not shown)	human ether-à-go-go-related gene (hERG) potassium channel (human, UniProt Q12809)	t
CN1CC(C(=O)c2ccc(Cl)cc2)C(c2ccccc2)C1 (stereo not shown)	human ether-à-go-go-related gene (hERG) potassium channel (human, UniProt Q12809)	t
CN1CC(C(=O)c2ccc(Cl)cc2)C(c2ccc(N(C)C)cc2)C1 (stereo not shown)	human ether-à-go-go-related gene (hERG) potassium channel (human, UniProt Q12809)	f

* * *

hERG current change (%, negative = inhibition) at 10uM: recorded values
Biological target: human ether-à-go-go-related gene (hERG) potassium channel (human);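 further: peak tail current of the secondary pulse compared with the same well before compound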
Assay: primary screen, population patch clamp on CHO cells stably expressing hERG; higher = less effect of the substance
In all, about 310,000 compounds went through this assay and about 14,000 (4.5%) showed an effect of 50% or more. Effects have a minus sign here. Many of the other results were omitted from the sample, so strong results are more common in it than they were.
recorded metric: hERG current change (%, negative = inhibition) at 10uM (%)

compound	measured value
O=C(N/N=C/c1ccc([N+](=O)[O-])cc1)C(=O)N1CCCC1	13.5
Cn1cnc([N+](=O)[O-])c1Sc1ccc(Br)cc1	-20
Cl.O=[N+]([O-])c1ccccc1/C=N/NC1=NCCCCC1	-39.3
O=C(Nc1c2c(nn1-c1ccccc1)CS(=O)C2)c1ccc(S(=O)(=O)N2CCOCC2)cc1 (centres unmarked)	17.4
Cc1ccc(Sc2c([N+](=O)[O-])ncn2C)cc1	3.39

* * *

Biological target: human ether-à-go-go-related gene (hERG) potassium channel (human);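 further: peak tail current of the secondary pulse compared with the same well before compound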
Experiment: primary screen, population patch clamp on CHO cells stably expressing hERG; higher = less effect of the substance
The whole screen tested about 310,000 compounds, of which about 14,000 (4.5%) showed an effect of 50% or more. Effects have a minus sign here. The entries come from a sample that favours strong results as a whole.
Please mark Condition met if the recorded hERG current change (%, negative = inhibition) at 10uM is equal to or greater than -10%, and Condition not met if it falls below.

molecule	group
O=C(NCCc1ccccc1)/C(=C/c1ccco1)c1ccccc1	Condition not met
O=C(COC(=O)CCS(=O)(=O)c1ccccc1)Nc1cc(S(=O)(=O)N2CCCCC2)ccc1Cl	Condition met
CS(=O)(=O)c1ccc(Cl)c(NC(=O)COC(=O)c2cccc(S(=O)(=O)N3CCCCC3)c2)c1	Condition not met
O=C(COC(=O)Cc1ccccc1)Nc1cc(S(=O)(=O)N2CCCCC2)ccc1Cl	Condition not met
O=C(O)c1nn2c(C(F)(F)F)cc(-c3cccs3)nc2c1Cl	Condition met
COc1ccccc1P(=O)(c1ccccc1)c1ccccc1	Condition met
O=C(COC(=O)c1ccccc1)Nc1cc(S(=O)(=O)N2CCCCCC2)ccc1Cl	Condition met
CS(=O)(=O)c1ccc(Cl)c(NC(=O)COC(=O)c2cccc(S(=O)(=O)N3CCCC3)c2)c1	Condition not met
COc1ccccc1-c1cc(C(=O)NC2CCN(C)CC2)c2ccc(Cl)c(C)c2n1	Condition not met

* * *

Molecular target: human ether-à-go-go-related gene (hERG) potassium channel (human, UniProt Q12809);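 further: peak tail current of the secondary pulse compared with the same well before compound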
Test: primary screen, population patch clamp on CHO cells stably expressing hERG; higher = less effect of the substance
About 14,000 (4.5%) of roughly 310,000 compounds showed an effect of 50% or more. Effects have a minus sign here. This excerpt belongs to a sample that is enriched for strong results.
hERG current change (%, negative = inhibition) at 10uM values for the molecules below.
recorded metric: hERG current change (%, negative = inhibition) at 10uM (%)

molecule	value unit	measured value
CN(C)CCCN(C(=O)c1ccc2c(c1)OCCO2)c1nc2ccc(Cl)cc2s1.Cl	%	-39.9
COc1ccc(C(=O)NCc2ccon2)cc1OC1CCN(C(C)C)CC1	%	-45.6
Cc1ccc2nc(N(CCN(C)C)C(=O)c3ccc4c(c3)OCCO4)sc2c1.Cl	%	-44.6
CCOc1ccc(S(=O)(=O)Nc2ccccn2)c2ccccc12	%	10.7
CCOC(=O)c1ccc(-c2c(-c3ccccc3OC)sc3cc4c(cc23)OCO4)cc1F	%	12.5
CCOCCCn1c(=N)c(S(=O)(=O)c2ccccc2)cc2c(=O)n3cc(C)ccc3nc21	%	-19.1
O=C(CCn1cccc1)Nc1ccc(OC(F)(F)F)cc1	%	2.32
CCN(CC)CCN(C(=O)c1ccc2c(c1)OCCO2)c1nc2cc3c(cc2s1)OCO3.Cl	%	-67.3
CCN(CC)CCN(C(=O)c1ccc(S(=O)(=O)N2CCCC2)cc1)c1nc2cc(C)cc(C)c2s1.Cl	%	-44.1
Cc1cc(C)cc(CC2CC(=O)N(c3cc(C)on3)C2=O)c1 (stereo not shown)	%	0.808
CCN(CC)CCN(C(=O)c1ccc(Br)s1)c1nc2cc3c(cc2s1)OCCO3.Cl	%	-1.19
Cc1ccc(-n2nc(C)c3c(C)c(CCC(=O)O)c(C)nc32)cc1	%	12.6
Cn1ncc(Br)c1NC(=O)Nc1ccc(OC(F)(F)F)cc1	%	8.82
Cn1ncc(C(=O)Nc2ccc(OC(F)(F)F)cc2)c1-n1cccc1	%	-81.3
CN(C)CCN(C(=O)c1ccc2c(c1)OCCO2)c1nc2cc3c(cc2s1)OCO3.Cl	%	-41.9
CN(C)CCCN(C(=O)c1ccc2c(c1)OCCO2)c1nc2cc3c(cc2s1)OCO3.Cl	%	-56
COc1cccc(CN(CC(=O)NCC2CCCO2)C(=O)CCC(=O)Nc2cc(C)on2)c1 (stereo not shown)	%	-0.822
Cc1ccc(-n2c(SCn3nnc4ccccc4c3=O)nnc2-c2cccnc2)c(C)c1	%	-39.3
CCN(CC)CCN(C(=O)c1ccc2c(c1)OCCO2)c1nc2ccc(C)cc2s1.Cl	%	-71.2

* * *

Molecular target: human ether-à-go-go-related gene (hERG) potassium channel (human, UniProt Q12809);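 further: peak tail current of the secondary pulse compared with the same well before compound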
Assay: primary screen, population patch clamp on CHO cells stably expressing hERG; higher = less effect of the substance
About 14,000 (4.5%) of roughly 310,000 compounds showed an effect of 50% or more. The effect is printed as a negative number. This is one part of a sample in which strong results are shown more often than they occur.
recorded metric: hERG current change (%, negative = inhibition) at 10uM (%)

compound	measured value
COc1cc([N+](=O)[O-])ccc1NC(=O)Cc1ccc(F)cc1	0.277
CCCCn1c(Cc2ccccc2)nnc1SCC(=O)N1CCOCC1	0.754
CCOC(=O)C1=C(OCc2ccc(Cl)cc2)C2C=C(C)C=CC2N=C1 (stereo not drawn)	-69.1
CCCCCCn1c(CN2CCN(C(=O)c3ccco3)CC2)nc2c1c(=O)n(C)c(=O)n2C	-65.8
c1ccc(C[C@H]2CN=C(Nc3ccccc3)N2CC2CCC2)cc1	-63
CCCn1c(N)[n+](CC(=O)c2ccco2)c2ccccc21.[Br-]	-11.1
COc1ccc(N(C(=O)c2snc(C(N)=O)c2N)C(C(=O)NC2CCCC2)c2cccs2)cc1OC (stereo not drawn)	-1.74
CCCCn1c(CN2CCN(C(=O)c3ccco3)CC2)nc2c1c(=O)n(C)c(=O)n2C	-34.1
Br.Cc1ccccc1Cn1c(=N)n(CC(=O)c2ccco2)c2ccccc21	-65
Cc1ccc(C)c(NC(=O)CN(C)S(=O)(=O)c2ccc(F)cc2)c1	3.47
CCc1ccc(C2CC(c3ccc(Cl)cc3)n3nc(N)nc3N2)cc1 (stereo not drawn)	-10.3
O=C(N/N=C/c1cccc(OC(=O)c2ccccc2Cl)c1)c1cccnc1	-17
Br.CCn1c(=N)n(CC(=O)c2ccco2)c2ccccc21	-3.75
CCOC(=O)N1CCN(Cc2cccs2)CC1	24.3
COc1ccc(/C=C/C=N/NC(=O)COc2ccc(OC)cc2)cc1	1.85
COc1ccc(S(=O)(=O)N(Cc2ccccc2)c2ccccc2C(=O)O)cc1	31.8
CCOCCn1c(CN2CCN(C(=O)c3ccco3)CC2)nc2c1c(=O)n(C)c(=O)n2C	-3.37
CCOC(=O)c1c(C=O)c(C)n(Cc2ccc(Cl)cc2)c1C	-18.8
O=C(NCCc1csc(-c2cccnc2)n1)c1cccc(Cl)c1	-17.7
CCc1[nH]nc2c1C(C(C)C)C(C#N)=C(N)O2 (stereo not drawn)	10.8
COC(=O)c1[nH]c2c(c1C)C(=O)CC(c1ccc(OC)cc1)C2 (stereo not drawn)	11
